tested on: DeltatarO mutant; experiment: S. aureus survival, RN4220 and DeltatarO strains – OD600, teichoic acid synthesis inhibitors, primary screen (AID 463173); conditions: S. aureus RN4220 wild type/DeltatarO growth, OD600, 18 h, hits give low values, screened at 18.75 µg/mL (by protocol)
The campaign covered roughly 52,000 compounds. About 4,300 (8.3%) were called active. The entries come from a sample that favours actives as a whole.
Attribute Measured: survival (%)
Value expressed in %; do not type the unit.

{"Compound": "CCc1ccc(NC(=O)Cn2c(=O)n(-c3ccccc3C)c(=O)c3c2c2cc(OC)ccc2n3C)cc1", "Target Entity": "DeltatarO mutant", "Observed": 67}
{"Compound": "Cc1nc(N2CCN(C(=O)c3ccco3)CC2)c2c3c(sc2n1)CC(C(C)(C)C)CC3 (stereo not given)", "Target Entity": "DeltatarO mutant", "Observed": 77}
{"Compound": "COc1ccc(-n2ccnc(NCCc3ccc(S(N)(=O)=O)cc3)c2=O)cc1", "Target Entity": "DeltatarO mutant", "Observed": 66}
{"Compound": "c1nc(N2CCCC2)c2c3c(sc2n1)CCC3", "Target Entity": "DeltatarO mutant", "Observed": 70}
{"Compound": "Cc1cc(C(=O)NCc2ccc(C(=O)O)o2)c(C)o1", "Target Entity": "DeltatarO mutant", "Observed": 58}
{"Compound": "CCN(CC)CCN(C(=O)c1ccco1)c1nc2c(C)c(C)ccc2s1", "Target Entity": "DeltatarO mutant", "Observed": 77}
{"Compound": "COc1ccc(CN2CCN(c3ncnc4sc5c(c34)CCCC5)CC2)cc1F", "Target Entity": "DeltatarO mutant", "Observed": 33}
{"Compound": "Clc1ccc(CN2CCN(c3ncnc4sc5c(c34)CCCC5)CC2)cc1Cl", "Target Entity": "DeltatarO mutant", "Observed": 107}
{"Compound": "COc1ccc(CN2CCN(c3ncnc4sc5c(c34)CC(C)CC5)CC2)cc1F (stereo not given)", "Target Entity": "DeltatarO mutant", "Observed": 83}

For the compound O=C(c1ccco1)N1CCN(c2ncnc3sc4c(c23)CCC4)CC1 , the measured survival on DeltatarO mutant was 36

---

system: DeltatarO mutant; assay: S. aureus survival, RN4220 and DeltatarO strains – OD600, teichoic acid synthesis inhibitors, primary screen (AID 463173); conditions: S. aureus RN4220 wild type/DeltatarO growth, OD600, 18 h, screened at 18.75 µg/mL (by protocol)
Among all 52,000 compounds or so, about 4,300 (8.3%) were called active. Rule as the data show it: active = survival mostly below about 52% (no sharp cut-off); inactive = mostly above about 56%. Only a selection was taken, and actives are over-represented in it overall.
Pick one and only one: active, inactive

Here's what some known entries look like.
{"Structure Smiles String": "CCOc1ccc(CNC(=O)Cn2c(=O)c3cccn3c3ccc(F)cc32)cc1OC", "Category Label": "inactive"}
{"Structure Smiles String": "COc1ccccc1CNc1ccc(-c2nc(-c3ccccn3)no2)cc1[N+](=O)[O-]", "Category Label": "active"}
{"Structure Smiles String": "Cc1ccccc1OCC(=O)Nc1ccccc1C(=O)OCc1cc(=O)n2c(C)csc2n1", "Category Label": "inactive"}
{"Structure Smiles String": "COc1ccc(N(CC(=O)Nc2ccc(Cl)cc2C)S(=O)(=O)c2ccccc2)c(OC)c1", "Category Label": "inactive"}
{"Structure Smiles String": "Cc1cccc(-c2noc(-c3ccc(N4CCOCC4)c([N+](=O)[O-])c3)n2)c1", "Category Label": "inactive"}
{"Structure Smiles String": "COc1ccccc1-c1noc(-c2ccc(N3CCN(C)CC3)c([N+](=O)[O-])c2)n1", "Category Label": "inactive"}
{"Structure Smiles String": "Cc1ccc(CNC(=O)CN(c2ccc(Cl)cc2Cl)S(=O)(=O)c2ccccc2)cc1", "Category Label": "inactive"}
{"Structure Smiles String": "COc1ccc(-c2noc(-c3ccc(NCc4ccccc4OC)c([N+](=O)[O-])c3)n2)cc1", "Category Label": "inactive"}

[Q] Could you check what this test reported for Cc1ccc(OCC(=O)Nc2nnc(SCc3cc(=O)n4cccc(C)c4n3)s2)cc1 ?
[A] inactive

[Q] Could you check what this test reported for Cc1cccn2c(=O)cc(CSc3nnc(NC(=O)COc4ccc(F)cc4)s3)nc12 ?
[A] active

[Q] Could you check what this test reported for COCCCn1c(=O)c2sccc2n2c(CCCC(=O)NCc3ccc(F)cc3)nnc12 ?
[A] inactive

[Q] Could you check what this test reported for Cc1cc(=O)n2nc(N3CCC(C(=O)NCCCOC(C)C)CC3)sc2n1 ?
[A] inactive

[Q] Could you check what this test reported for CCOc1ccc(NC(=O)CN(c2ccc(Cl)cc2C)S(=O)(=O)c2ccccc2)cc1 ?
[A] active

[Q] Could you check what this test reported for COc1ccccc1CNc1ccc(-c2nc(-c3ccncc3)no2)cc1[N+](=O)[O-] ?
[A] active

[Q] Could you check what this test reported for Cc1ccc(OCC(=O)Nc2nnc(SCc3cc(=O)n4cc(C)ccc4n3)s2)cc1 ?
[A] active

[Q] Could you check what this test reported for COc1ccccc1-c1noc(-c2ccc(N3CCN(c4ccccc4)CC3)c([N+](=O)[O-])c2)n1 ?
[A] active

[Q] Could you check what this test reported for COc1ccccc1-c1noc(-c2ccc(N3CCOCC3)c([N+](=O)[O-])c2)n1 ?
[A] inactive

[Q] Could you check what this test reported for Cc1cccc(-c2noc(-c3ccc(N4CCN(C)CC4)c([N+](=O)[O-])c3)n2)c1 ?
[A] active

[Q] Could you check what this test reported for CCOC(=O)c1ccccc1NC(=O)CCc1c(C)nc2ncnn2c1C ?
[A] inactive

[Q] Could you check what this test reported for CCOC(=O)N1CCc2c(sc3c2c(=O)n(CCc2ccccc2)c(=O)n3Cc2c(F)cccc2Cl)C1 ?
[A] inactive

This collection of values is drawn from PubChem BioAssay AID463173.
